The values you see were collected from patent US20240174648A1.

Experimental System: JAK1 (Homo sapiens)
Test Description: JAK kinase inhibition assay (EZ Reader, peptide substrate phosphorylation) - JAK1
Assay type: biochemical
Conditions Used: JAK1 kinase 20 nM; 8 concentration points, max 10 μM

{"Compound": "Cn1cc(Nc2nccc(-c3ccc(NC(=O)C4CC4)nc3)n2)cn1 [TDM-180819]", "IC50": "0.1 to 1 µM"}
{"Compound": "CCCS(=O)(=O)Nc1ccc(-c2ccnc(Nc3cnn(C)c3)n2)cc1 [TDM-180893]", "IC50": "0.1 to 1 µM"}
{"Compound": "CCOCCS(=O)(=O)Nc1ccc(-c2ccnc(Nc3cnn(C)c3)n2)cn1 [TDM-180877]", "IC50": "0.1 to 1 µM"}
{"Compound": "Cn1cc(Nc2nccc(-c3ccc(NS(=O)(=O)CCc4ccccc4)cc3)n2)cn1 [TDM-180894]", "IC50": "0.1 to 1 µM"}
{"Compound": "Cn1cc(Nc2nccc(-c3ccc(NC(=O)CC4CC4)nc3)n2)cn1 [TDM-180818]", "IC50": "0.1 to 1 µM"}

###

Experimental System: Tyk2 (Homo sapiens, UniProt P29597)
Sequence (P29597 whole entry): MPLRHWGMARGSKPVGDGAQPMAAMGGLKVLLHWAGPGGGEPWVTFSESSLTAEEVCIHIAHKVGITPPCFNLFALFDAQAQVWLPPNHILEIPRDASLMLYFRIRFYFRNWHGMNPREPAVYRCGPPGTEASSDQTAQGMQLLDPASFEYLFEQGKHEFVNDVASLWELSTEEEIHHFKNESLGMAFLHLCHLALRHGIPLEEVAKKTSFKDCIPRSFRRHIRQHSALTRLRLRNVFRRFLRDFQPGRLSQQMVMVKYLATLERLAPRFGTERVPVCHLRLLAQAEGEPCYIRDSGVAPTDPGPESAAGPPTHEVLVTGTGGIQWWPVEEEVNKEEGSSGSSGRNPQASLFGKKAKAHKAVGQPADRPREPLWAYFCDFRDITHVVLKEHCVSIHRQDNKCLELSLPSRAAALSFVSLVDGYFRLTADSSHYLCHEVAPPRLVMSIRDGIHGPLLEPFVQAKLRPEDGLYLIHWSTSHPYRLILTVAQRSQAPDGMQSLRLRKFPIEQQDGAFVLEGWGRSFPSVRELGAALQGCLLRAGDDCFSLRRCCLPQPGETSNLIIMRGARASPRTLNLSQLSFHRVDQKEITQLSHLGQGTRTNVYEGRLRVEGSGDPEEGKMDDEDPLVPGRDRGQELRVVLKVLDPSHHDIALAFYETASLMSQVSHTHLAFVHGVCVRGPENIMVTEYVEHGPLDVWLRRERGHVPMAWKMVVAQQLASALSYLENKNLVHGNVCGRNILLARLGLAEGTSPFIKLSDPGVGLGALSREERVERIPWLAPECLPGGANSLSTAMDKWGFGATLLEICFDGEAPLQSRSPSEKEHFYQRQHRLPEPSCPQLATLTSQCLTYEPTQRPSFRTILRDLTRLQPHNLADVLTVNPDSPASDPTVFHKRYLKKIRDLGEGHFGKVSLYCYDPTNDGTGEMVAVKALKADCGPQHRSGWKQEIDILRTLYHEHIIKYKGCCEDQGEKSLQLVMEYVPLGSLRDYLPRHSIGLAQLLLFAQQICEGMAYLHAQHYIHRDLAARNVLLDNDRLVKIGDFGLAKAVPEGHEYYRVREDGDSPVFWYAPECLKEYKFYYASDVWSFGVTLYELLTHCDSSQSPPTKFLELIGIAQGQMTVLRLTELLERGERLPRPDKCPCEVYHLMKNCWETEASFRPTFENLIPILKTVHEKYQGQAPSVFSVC
Test Description: JAK kinase inhibition assay (EZ Reader, peptide substrate phosphorylation) - Tyk2
Format: biochemical
Conditions Used: Tyk2 kinase 1 nM; 8 concentration points, max 10 μM
Text: Assay for Identifying Inhibitory Effects of Compounds on JAK Kinases Janus kinases (JAK), including JAK1, JAK2, JAK3 and Tyk2, transduce a cytokine-mediated signal through a JAK-STAT pathway. The kinases are 120-140 kDa in size and have 7 determined homology regions: JH1 to JH7. […] EZ Reader from PerkinElmer can be used to detect the phosphorylation of polypeptide substrates catalyzed by kinases. […] S4.7. The microplates were placed on EZ Reader for reading. […]

{"Chemical Structure": "Cn1cc(Nc2nccc(-c3ccc(NC(=O)CC(F)(F)F)c4cc[nH]c34)n2)cn1", "IC50": "1 to 10 µM"}
{"Chemical Structure": "COCC(=O)Nc1ccc(-c2ccnc(Nc3cnn(C)c3)n2)cc1", "IC50": "1 to 10 µM"}
{"Chemical Structure": "Cn1cc(Nc2nccc(-c3ccc(NC(=O)CC(F)(F)F)nc3)n2)cn1", "IC50": "0.1 to 1 µM"}
{"Chemical Structure": "Cn1cc(Nc2nccc(-c3ccc(NC(=O)CC4CC4)nc3)n2)cn1", "IC50": "0.1 to 1 µM"}
{"Chemical Structure": "Cn1cc(Nc2nccc(-c3cnc(NC(=O)CC(F)(F)F)c(F)c3)n2)cn1", "IC50": "1 to 10 µM"}

###

Experimental System: JAK3 (Homo sapiens, UniProt P52333)
Sequence (P52333 whole entry): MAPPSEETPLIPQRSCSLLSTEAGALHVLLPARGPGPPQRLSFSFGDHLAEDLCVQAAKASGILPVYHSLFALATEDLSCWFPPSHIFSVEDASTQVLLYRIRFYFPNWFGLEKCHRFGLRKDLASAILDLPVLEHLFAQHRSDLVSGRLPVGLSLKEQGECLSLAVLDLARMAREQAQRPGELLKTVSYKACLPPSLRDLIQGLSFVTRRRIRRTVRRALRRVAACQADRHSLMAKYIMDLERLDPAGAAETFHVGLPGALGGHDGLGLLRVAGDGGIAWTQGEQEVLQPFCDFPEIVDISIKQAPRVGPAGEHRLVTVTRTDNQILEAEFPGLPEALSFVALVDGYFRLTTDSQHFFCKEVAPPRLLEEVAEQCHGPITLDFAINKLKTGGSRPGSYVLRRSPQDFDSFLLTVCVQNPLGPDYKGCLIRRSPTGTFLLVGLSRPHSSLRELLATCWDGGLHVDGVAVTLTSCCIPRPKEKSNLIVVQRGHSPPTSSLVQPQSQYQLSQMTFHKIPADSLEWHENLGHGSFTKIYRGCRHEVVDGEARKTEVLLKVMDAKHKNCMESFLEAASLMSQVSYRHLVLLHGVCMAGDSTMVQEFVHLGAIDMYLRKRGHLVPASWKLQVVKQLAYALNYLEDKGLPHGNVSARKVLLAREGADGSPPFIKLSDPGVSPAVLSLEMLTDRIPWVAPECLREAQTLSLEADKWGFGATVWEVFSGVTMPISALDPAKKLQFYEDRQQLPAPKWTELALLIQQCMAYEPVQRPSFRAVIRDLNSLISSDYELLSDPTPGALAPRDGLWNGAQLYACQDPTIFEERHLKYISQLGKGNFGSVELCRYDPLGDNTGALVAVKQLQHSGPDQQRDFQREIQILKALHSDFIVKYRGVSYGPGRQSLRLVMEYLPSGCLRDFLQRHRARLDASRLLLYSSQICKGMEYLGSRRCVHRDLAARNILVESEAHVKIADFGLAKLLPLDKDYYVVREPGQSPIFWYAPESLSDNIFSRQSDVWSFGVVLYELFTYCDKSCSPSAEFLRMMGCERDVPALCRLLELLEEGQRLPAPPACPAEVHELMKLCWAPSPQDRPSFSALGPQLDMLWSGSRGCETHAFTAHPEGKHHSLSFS
Test Description: JAK kinase inhibition assay (EZ Reader, peptide substrate phosphorylation) - JAK3
Format: biochemical
Conditions Used: JAK3 kinase 1 nM; 8 concentration points, max 10 μM
Text: Assay for Identifying Inhibitory Effects of Compounds on JAK Kinases Janus kinases (JAK), including JAK1, JAK2, JAK3 and Tyk2, transduce a cytokine-mediated signal through a JAK-STAT pathway. The kinases are 120-140 kDa in size and have 7 determined homology regions: JH1 to JH7. […] EZ Reader from PerkinElmer can be used to detect the phosphorylation of polypeptide substrates catalyzed by kinases. […] S4.7. The microplates were placed on EZ Reader for reading. […]
Quantity Name: IC50

{"Compound": "Cn1cc(Nc2nccc(-c3ccc(NC(=O)CC4CC4)cc3)n2)cn1 [TDM-180804]", "Quantity Name": "IC50", "Result": "1 to 10 µM"}
{"Compound": "Cn1cc(Nc2nccc(-c3ccc(NS(=O)(=O)C4CC4)cc3)n2)cn1 [TDM-180767]", "Quantity Name": "IC50", "Result": "1 to 10 µM"}
{"Compound": "COCCC(=O)Nc1ccc(-c2ccnc(Nc3cnn(C)c3)n2)cn1 [TDM-180814]", "Quantity Name": "IC50", "Result": "1 to 10 µM"}
{"Compound": "Cn1cc(Nc2nccc(-c3ccc(NC(=O)CC#N)nc3)n2)cn1 [TDM-180833]", "Quantity Name": "IC50", "Result": "1 to 10 µM"}
{"Compound": "Cn1cc(Nc2nccc(-c3ccc(-n4nccc4C4CC4)cc3)n2)cn1 [TDM-180763]", "Quantity Name": "IC50", "Result": "≥ 10 µM"}
{"Compound": "Cn1cc(Nc2nccc(-c3ccc(NC(=O)C4CC4)nc3)n2)cn1 [TDM-180819]", "Quantity Name": "IC50", "Result": "1 to 10 µM"}
{"Compound": "Cn1cc(Nc2nccc(-c3ccc(C(=O)NCC#N)nc3)n2)cn1 [TDM-180762]", "Quantity Name": "IC50", "Result": "1 to 10 µM"}
{"Compound": "Cn1cc(Nc2nccc(-c3ccc(NC(=O)C4CCC4)nc3)n2)cn1 [TDM-180823]", "Quantity Name": "IC50", "Result": "1 to 10 µM"}
{"Compound": "Cn1cc(Nc2nccc(-c3ccc(C(=O)N4CCS(=O)(=O)CC4)cc3)n2)cn1 [TDM-180749]", "Quantity Name": "IC50", "Result": "≥ 10 µM"}
{"Compound": "Cn1cc(Nc2nccc(-c3ccc(NC(=O)CC4CC4)nc3)n2)cn1 [TDM-180818]", "Quantity Name": "IC50", "Result": "1 to 10 µM"}
{"Compound": "Cn1cc(Nc2nccc(-c3ccc(C(=O)NC4CC4(F)F)cc3)n2)cn1 (stereo not drawn) [TDM-180758]", "Quantity Name": "IC50", "Result": "1 to 10 µM"}
{"Compound": "COCC(=O)Nc1ccc(-c2ccnc(Nc3cnn(C)c3)n2)cc1 [TDM-180759]", "Quantity Name": "IC50", "Result": "≥ 10 µM"}
{"Compound": "CCOCCS(=O)(=O)Nc1ccc(-c2ccnc(Nc3cnn(C)c3)n2)cc1 [TDM-180834]", "Quantity Name": "IC50", "Result": "1 to 10 µM"}
{"Compound": "C=CCS(=O)(=O)Nc1ccc(-c2ccnc(Nc3cnn(C)c3)n2)cc1 [TDM-180844]", "Quantity Name": "IC50", "Result": "1 to 10 µM"}
{"Compound": "Cn1cc(Nc2nccc(-c3ccc(CNCC#N)cc3)n2)cn1 [TDM-180761]", "Quantity Name": "IC50", "Result": "≥ 10 µM"}
{"Compound": "Cn1cc(Nc2nccc(-c3ccc(NS(=O)(=O)Cc4ccccc4)cc3)n2)cn1 [TDM-180820]", "Quantity Name": "IC50", "Result": "< 0.1 µM"}
{"Compound": "Cn1cc(Nc2nccc(-c3ccc(NC(=O)C4(F)CC4)cc3)n2)cn1 [TDM-180803]", "Quantity Name": "IC50", "Result": "≥ 10 µM"}
{"Compound": "Cn1cc(Nc2nccc(-c3ccc(NC(=O)C4(C)CC4)cc3)n2)cn1 [TDM-180802]", "Quantity Name": "IC50", "Result": "≥ 10 µM"}

###

Experimental System: Tyk2 (Homo sapiens)
Test Description: JAK kinase inhibition assay (EZ Reader, peptide substrate phosphorylation) - Tyk2
Assay type: biochemical
Conditions Used: Tyk2 kinase 1 nM; 8 concentration points, max 10 μM

{"Molecule": "Cc1cc(-c2ccnc(Nc3cnn(C)c3)n2)cnc1NC(=O)CC(F)(F)F", "IC50": "1 to 10 µM"}
{"Molecule": "CCCCS(=O)(=O)Nc1ccc(-c2ccnc(Nc3cnn(C)c3)n2)cc1", "IC50": "0.1 to 1 µM"}
{"Molecule": "CCS(=O)(=O)Nc1ccc(-c2ccnc(Nc3cnn(C)c3)n2)cn1", "IC50": "1 to 10 µM"}
{"Molecule": "Cn1cc(Nc2nccc(-c3ccc(NC(=O)C4CC4(F)F)c4[nH]ccc34)n2)cn1 (centres unmarked)", "IC50": "< 0.1 µM"}
{"Molecule": "Cn1cc(Nc2nccc(-c3ccnc(NC(=O)CC(F)(F)F)c3)n2)cn1", "IC50": "≥ 10 µM"}

###

Below is a list of entries, each paired with its recorded IC50 value.
Experimental System: JAK1 (Homo sapiens, UniProt P23458)
Sequence (P23458 whole entry): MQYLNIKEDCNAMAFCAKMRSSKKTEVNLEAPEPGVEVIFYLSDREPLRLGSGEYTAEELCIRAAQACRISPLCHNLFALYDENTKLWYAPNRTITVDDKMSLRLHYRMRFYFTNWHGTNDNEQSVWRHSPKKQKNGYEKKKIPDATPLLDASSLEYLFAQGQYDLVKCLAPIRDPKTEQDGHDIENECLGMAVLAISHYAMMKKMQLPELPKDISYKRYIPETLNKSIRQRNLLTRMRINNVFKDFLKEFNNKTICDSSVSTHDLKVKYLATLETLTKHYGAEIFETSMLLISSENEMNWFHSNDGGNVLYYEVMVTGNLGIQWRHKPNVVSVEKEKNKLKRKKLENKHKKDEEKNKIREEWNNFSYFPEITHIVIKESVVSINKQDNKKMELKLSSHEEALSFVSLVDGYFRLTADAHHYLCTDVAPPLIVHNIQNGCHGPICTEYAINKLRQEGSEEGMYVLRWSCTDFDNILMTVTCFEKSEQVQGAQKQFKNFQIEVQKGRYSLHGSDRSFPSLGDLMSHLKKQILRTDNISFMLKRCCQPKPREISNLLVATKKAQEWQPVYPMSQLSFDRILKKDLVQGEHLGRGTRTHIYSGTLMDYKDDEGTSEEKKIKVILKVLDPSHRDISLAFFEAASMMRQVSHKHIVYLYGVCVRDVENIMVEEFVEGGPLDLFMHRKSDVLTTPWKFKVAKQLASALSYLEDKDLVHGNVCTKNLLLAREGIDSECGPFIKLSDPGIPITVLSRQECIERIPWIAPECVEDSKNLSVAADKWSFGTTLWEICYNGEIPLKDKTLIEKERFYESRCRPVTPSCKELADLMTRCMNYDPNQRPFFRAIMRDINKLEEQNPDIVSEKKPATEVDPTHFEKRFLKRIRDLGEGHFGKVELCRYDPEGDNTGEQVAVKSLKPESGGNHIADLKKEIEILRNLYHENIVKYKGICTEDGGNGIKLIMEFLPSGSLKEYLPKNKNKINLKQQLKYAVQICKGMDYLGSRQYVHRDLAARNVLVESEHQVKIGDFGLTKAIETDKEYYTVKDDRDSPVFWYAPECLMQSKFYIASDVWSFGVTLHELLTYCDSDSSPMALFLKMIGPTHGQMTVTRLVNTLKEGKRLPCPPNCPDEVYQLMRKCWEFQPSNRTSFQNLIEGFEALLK
Test Description: JAK kinase inhibition assay (EZ Reader, peptide substrate phosphorylation) - JAK1
Format: biochemical
Conditions Used: JAK1 kinase 20 nM; 8 concentration points, max 10 μM

{"Compound": "Cn1cc(Nc2nccc(-c3ccc(NS(=O)(=O)CCC(F)(F)F)cc3)n2)cn1", "IC50": "0.1 to 1 µM"}
{"Compound": "Cn1cc(Nc2nccc(-c3cnc(NS(=O)(=O)Cc4ccccc4)c(F)c3)n2)cn1", "IC50": "≥ 10 µM"}
{"Compound": "Cn1cc(Nc2nccc(-c3ccc(NC(=O)CC4CC4)c4[nH]ncc34)n2)cn1", "IC50": "0.1 to 1 µM"}
{"Compound": "Cn1cc(Nc2nccc(-c3ccc(NC(=O)C4CC4)c4[nH]ccc34)n2)cn1", "IC50": "0.1 to 1 µM"}
{"Compound": "Cn1cc(Nc2nccc(-c3ccc(NC(=O)C(F)F)cc3)n2)cn1", "IC50": "0.1 to 1 µM"}
{"Compound": "Cn1cc(Nc2nccc(-c3ccnc(NC(=O)CC#N)c3)n2)cn1", "IC50": "≥ 10 µM"}
{"Compound": "Cn1cc(Nc2nccc(-c3cnc(NS(=O)(=O)Cc4ccccc4)nc3)n2)cn1", "IC50": "≥ 10 µM"}
{"Compound": "Cn1cc(Nc2nccc(-n3ccc4c(NC(=O)C5CC5(F)F)cccc43)n2)cn1 (centres unmarked)", "IC50": "< 0.1 µM"}
